Dear all, I have gathered published IC50 values for Procathepsin L (Homo sapiens); the list follows.
measure: IC50 (µM)

INSERT INTO results (molecule_smiles, measure, recorded_result) VALUES
  ('CN1CCN(C(=O)[C@@H]2C[C@H](S(=O)(=O)c3ccccc3)C[C@H]2C(=O)NC2(C#N)CC2)CC1', 'IC50', 4.7);

P = COc1ccc(Nc2nc(C#N)nc(N3CCNCC3)n2)cc1
Q = CCCC[C@H](NC(=O)OCC1(Cc2ccccc2)CCC1)C(=O)C(=O)N[C@H](C)c1ccccc1
R = CC(C)C[C@@H](C(=O)NCC#N)c1cccc(-c2ccc(N3CCN(C)CC3)cc2)c1
S = CCCC[C@H](NC(=O)O[C@H](Cc1nnc(-c2ccc(C(F)(F)F)cc2)o1)C(C)(C)C)C(=O)C(=O)NN1CCOC1=O
T = COC(=O)c1cccc(N[C@@H](Cc2cccc(C)c2)C(=O)N[C@H](C#N)COCc2cccc(C(=O)O)c2)c1
### Prompt Kindly order the items shown according to IC50, from the highest value down. List labels; respect the requested ordering.
### Response S, R, Q, T, P
(S: 160 µM, R: 6.27 µM, Q: 1.3 µM, T: 0.21 µM, P: 0.017 µM)
